- TARGET DESC: T1, Claudin 18.2 (CLDN18.2), expressed on CHOS-CLDN 18.2 / HEK293-CLDN 18.2 / HCC827-CLDN 18.2 cells (human, UniProt P56856-2 1-261)
- T1 construct: whole, on cells; The species is not repeated for the CHOS-CLDN 18.2 cells; also called claudin-18A2
- EXPERIMENT DESCRIPTION: FACS, CHOS-CLDN18.2 cells
RECORDED METRIC: EC50 (µg/mL)

binder="QP201202 (antibody, human IgG1, V domains shown, Chimeric; also called 44C6) VH: EVQLQQSGPELVKPGASVKMSCKASGYTFTNYFVHWVKQKPGQGLEWIGYINPYNDDTKYNEKFKGKATLTSDKSSSTAYMDLSSLTSEDSAVYYCLSLRFFAYWGQGTLVTVSA VL: DIVMTQSPSSLTVTAGEKVTMSCKSSQSLLNSGNQKNYLTWYQQKPGQAPKLLIYWASTRESGVPDRFIGSGSGTDFTLTISHVQAEDLAVYFCQNDYSYPLTFGAGTNLELK" recorded_metric=EC50 numeric_readout=0.417

Source listed as patent US20230183352A1.
